System: RPMI-8226
Experiment: NCI tumour cell line growth inhibition, 48 h
Active and inactive are the calls of the source. Cut-off read from the data, not from the text of the source: active = GI50 up to about 1.1 µM and inactive = higher.
Just give me one of these, please: True (active), False (inactive)

// below: answered compounds
COMPOUND: CN(/N=C/c1cccc2cccnc12)c1ccc(Cl)cc1[N+](=O)[O-]
EXPERIMENTAL_SYSTEM: RPMI-8226
CAT: False
//
COMPOUND: COc1c(-c2nc3ccc(N4CCN(C)CC4)nc3[nH]2)cc(OC)c2c1nc(CO)n2C
EXPERIMENTAL_SYSTEM: RPMI-8226
CAT: False
//
COMPOUND: Cc1nnc(N)nc1C/C=C/C(Sc1ccc(Cl)cc1)c1ccccc1 (stereo not drawn)
EXPERIMENTAL_SYSTEM: RPMI-8226
CAT: False
//
COMPOUND: CCCC(=O)Nc1cn(COC)c(C(=O)N2C[C@H]3C[C@@]34C2=CC(=O)c2[nH]cc(C)c24)n1
EXPERIMENTAL_SYSTEM: RPMI-8226
CAT: False

Qu. Assay outcome for C[C@@H]1CCC2[C@@H](C)[C@H](O[C@H]3O[C@@H]4O[C@@]5(C)CCC6[C@H](C)CCC([C@H]3C)[C@]64OO5)O[C@@H]3O[C@@]4(C)CCC1[C@@]23OO4 (stereo partly drawn) : what was it?
Ans. True

Qu. Assay outcome for COC(=O)C1=C(c2ccc(Cl)cc2)C(O)NC(NN)=N1 (stereo not drawn) : what was it?
Ans. False

Qu. Assay outcome for "COc1ccc(CN2C[C@H]3[C@@H](CC(=O)O[C@H]3C)CC2=O)cc1" : what was it?
Ans. False

Qu. Assay outcome for "O=C1/C(=C\c2ccc([N+](=O)[O-])cc2)Sc2scc(-c3ccc(O)c(O)c3)[n+]21" : what was it?
Ans. False

* * *

Test system: KM-20L2
Assay: NCI tumour cell line growth inhibition, 48 h
Activity calls are given as the source filed them. Rule as the data show it: active = GI50 up to about 1.1 µM and inactive = higher.
Please provide measured GI50 for the entries that follow.

Here's what some known entries look like.
COMPOUND: CCOc1ccc(C2=C(Cl)c3cc(OC)c(OC)cc3C2Cl)cc1 (stereo not given)
GI50: 38.8 µM (inactive)
//
COMPOUND: CC12CCC(C(=O)N3CC=CCC3)(OC1=O)C2(C)C (stereo not given)
GI50: > 100 µM (inactive)
//
COMPOUND: CC#N.O[C@@H]1CCCC[C@@H]1O.O[C@@H]1CCCC[C@@H]1O.[TeH2]
GI50: 65.5 µM (inactive)
//
COMPOUND: CCN(CC)CCCC(C)Nc1c2ccc(Cl)cc2nc2ccc(OC)cc12 (stereo not given)
GI50: 1.33 µM (inactive)

Give measured GI50 for every item shown.
1. COc1ccc2c(c1)NC1(O)c3ccccc3C(=O)C21O (stereo not given)
2. C/C(=N/NC(N)=S)C(CN1CCOCC1)C(C1=C(O)c2ccccc2OC1)c1ccccc1 (stereo not given)

Ans.
["> 100 µM (inactive)", "> 100 µM (inactive)"]

* * *

Tested on: U-251
Assay: NCI tumour cell line growth inhibition, 48 h
Active and inactive are the calls of the source. Rule as the data show it: active = GI50 up to about 1.1 µM and inactive = higher.
MEASURE_NAME: GI50

Here's what some known entries look like.
COMPOUND: COc1ccc(CN2C[C@H]3[C@@H](CC(=O)O[C@H]3C)CC2=O)cc1
ASSAY_VALUE: > 100 µM (inactive)
//
COMPOUND: COc1ccc2c(c1)NC1(O)c3ccccc3C(=O)C21O (stereo not given)
ASSAY_VALUE: > 100 µM (inactive)
//
COMPOUND: Cc1c(-c2ccccc2)n[nH]c1NC1(C)C(=O)N(/N=C/c2ccccc2)N=C1c1ccccc1 (stereo not given)
ASSAY_VALUE: > 33.6 µM (inactive)
//
COMPOUND: O=C1Nc2ccccc2/C1=C1/Nc2ccccc2/C1=N/OCCOCCO
ASSAY_VALUE: 3.29 µM (inactive)

# context switch: different compound, same GI50
Qu. Item c1ccc(N2CCN(CCN3CCc4c([nH]c5ccccc45)C3c3cccnc3)CC2)cc1 (stereo not given) has what recorded GI50?
Ans. > 100 µM (inactive)

* * *

Tested on: SF-268
Assay: NCI tumour cell line growth inhibition, 48 h
The source made the active and inactive calls. No stated cut-off is given here; in the data, active = GI50 up to about 1.1 µM and inactive = higher.
MEASURE_NAME: GI50

COMPOUND: CC(=O)OCC(=O)[C@@]1(O)CC[C@H]2[C@@H]3CCC4=CC(=O)[C@H](C)C[C@]4(C)[C@H]3[C@@H](O)C[C@@]21C
EXPERIMENTAL_SYSTEM: SF-268
GI50: > 100 µM (inactive)

COMPOUND: CC(=O)N1NC(c2ccccc2)=CC(=O)/C1=C/C(=O)c1ccccc1
EXPERIMENTAL_SYSTEM: SF-268
GI50: 29.2 µM (inactive)

COMPOUND: COc1ccc(/C=C2/SC(c3ccc(Cl)cc3)N(NC(=O)CCCCCCCCC(=O)NN3C(=O)/C(=C\c4ccc(OC)c(OC)c4)SC3c3ccc(Cl)cc3)C2=O)cc1OC (stereo not drawn)
EXPERIMENTAL_SYSTEM: SF-268
GI50: 50 µM (inactive)

Give measured GI50 for every item shown.
1. CCOc1ccc(C2=C(Cl)c3cc(OC)c(OC)cc3C2Cl)cc1 (stereo not drawn)
2. N=c1c2c(ncn1N)Oc1c(c(-c3ccccc3)nn1-c1ccccc1)C2c1ccc(Cl)cc1 (stereo not drawn)
3. CCOC(=O)/C(=C\c1cccs1)P(=O)(OCC)OCC
4. COc1ccc(-c2cc(=O)c3c(O)c(OC)c(OC)c(OC)c3o2)cc1OC
5. O=[N+]([O-])c1ccc(C(O)(C#CCN2CCCC2)c2ccccc2)cc1 (stereo not drawn)

Ans.
["59.6 µM (inactive)", "1.71 µM (inactive)", "24.1 µM (inactive)", "10.1 µM (inactive)", "27 µM (inactive)"]

* * *

System: RXF 631
Assay: NCI tumour cell line growth inhibition, 48 h
The source made the active and inactive calls. Cut-off read from the data, not from the text of the source: active = GI50 up to about 1.1 µM and inactive = higher.
MEASURE_NAME: GI50

Here's what some known entries look like.
MOLECULE: COC(=O)/C=C1\CCC2[C@@H](C(=O)CC3[C@]2(C)CCC[C@@]3(C)C(=O)OC)C1C (some centres not stated)
GI50: 25.4 µM (inactive)

MOLECULE: CCOP(=O)(OCC)/C(C#N)=C/c1ccco1
GI50: > 100 µM (inactive)

MOLECULE: Cc1ccc2c(c1)C(c1cccc3ccccc13)OC2=O (configuration not stated)
GI50: 27.7 µM (inactive)

MOLECULE: CCCCCCCC1(c2ccc(N)cc2)CCC(=O)NC1=O (configuration not stated)
GI50: 41 µM (inactive)

MOLECULE: CC#N.O[C@@H]1CCCC[C@@H]1O.O[C@@H]1CCCC[C@@H]1O.[TeH2]
GI50: 18.7 µM (inactive)

MOLECULE: CC1(C)OC(=O)C(C#N)=C1/C=C/c1coc2ccc(Cl)cc2c1=O
GI50: 38.8 µM (inactive)

MOLECULE: COC(=O)CCC(NC(=S)N/N=C/c1ccco1)C(=O)OC (configuration not stated)
GI50: > 100 µM (inactive)

MOLECULE: Cc1cc(C)nc(NS(=O)(=O)c2ccc(NC(=O)c3cccc4c(Nc5ccc(S(N)(=O)=O)cc5)c5ccccc5nc34)cc2)n1
GI50: > 100 µM (inactive)

MOLECULE: COC(=O)NN=C1C(C)(C)C(=O)C1(C)C
GI50: > 100 µM (inactive)

MOLECULE: CS/C(=C(\S)c1ccccc1)c1ccccc1
GI50: > 100 µM (inactive)

Give measured GI50 for every item shown.
1. CS(=O)(=O)NNS(=O)(=O)c1ccc(Cl)cc1
2. S=C(N/N=C/c1ccccc1)NC12CC3CC(CC(C3)C1)C2

Ans.
["> 100 µM (inactive)", "44.5 µM (inactive)"]

* * *

Please provide measured GI50 for the entries that follow.
Test system: TK-10
Test: NCI tumour cell line growth inhibition, 48 h
Activity calls are given as the source filed them. Cut-off read from the data, not from the text of the source: active = GI50 up to about 1.1 µM and inactive = higher.

COMPOUND: COC1=CC2(C=CC1=O)c1cc(OC)c(OC)cc1CCN2C(=O)c1ccccc1 (stereo not given)
EXPERIMENTAL_SYSTEM: TK-10
ASSAY_VALUE: > 100 µM (inactive)

COMPOUND: C/C(=N/NC(N)=S)C(CN1CCOCC1)C(C1=C(O)c2ccccc2OC1)c1ccccc1 (stereo not given)
EXPERIMENTAL_SYSTEM: TK-10
ASSAY_VALUE: > 100 µM (inactive)

COMPOUND: C/N=c1\ss/c(=N\C(=S)N(C)C)n1-c1ccccc1
EXPERIMENTAL_SYSTEM: TK-10
ASSAY_VALUE: > 100 µM (inactive)

COMPOUND: CN1C/C(=C\c2ccc(C(=O)O)cc2)C(=O)/C(=C/c2ccc(C(=O)O)cc2)C1
EXPERIMENTAL_SYSTEM: TK-10
ASSAY_VALUE: > 100 µM (inactive)

COMPOUND: CO/N=C(\C(=O)O/C(=N/C1CCCCC1)NC1CCCCC1)c1csc(NC(c2ccccc2)(c2ccccc2)c2ccccc2)n1
EXPERIMENTAL_SYSTEM: TK-10
ASSAY_VALUE: > 10 µM (inactive)

COMPOUND: Nc1ccc(Oc2ccc(C3(c4ccc(Oc5ccc(N)cc5)cc4)C4CC5CC(C4)CC3C5)cc2)cc1
EXPERIMENTAL_SYSTEM: TK-10
ASSAY_VALUE: 22.8 µM (inactive)

Give measured GI50 for every item shown.
1. CC(=O)N1CN2C(=O)CCC2c2cc(C)ccc21 (stereo not given)
2. COc1c2ccsc2c(OC)c2ccsc12

Ans.
["> 100 µM (inactive)", "> 100 µM (inactive)"]

Give measured GI50 for every item shown.
1. CC(=O)OC(Cc1c(O)c2c(C)cccc2oc1=O)C(C)(C)O (stereo not given)
2. CN(C)CC1(Cc2ccccc2)CC/C(=C\c2ccccc2)C1=O (stereo not given)

Ans.
["> 100 µM (inactive)", "> 100 µM (inactive)"]
